System: Haemophilus influenzae
PROTOCOL: Ratio of MBC to MIC against azithromycin-susceptible Haemophilus influenzae ATCC 49247
Format: functional
MEASURE: Ratio
// print number alone

SMILES REPR: CC[C@H]1OC(=O)[C@H](C)[C@@H](OC(=O)Cc2ccccn2)[C@H](C)[C@@H](O[C@@H]2O[C@H](C)C[C@H](N(C)C)[C@H]2O)[C@](C)(OC(=O)CCNCCC#Cc2cncc(C(N)=O)c2)C[C@@H](C)CN(C)[C@H](C)[C@@H](O)[C@]1(C)O
MEASURE: Ratio
MEASURED: 2
--
SMILES REPR: CC[C@H]1OC(=O)[C@H](C)[C@@H](OC(=O)Cc2ccccn2)[C@H](C)[C@@H](O[C@@H]2O[C@H](C)C[C@H](N(C)C)[C@H]2O)[C@](C)(OC(=O)CCN2CCN(c3cc4c(cc3F)c(=O)c(C(N)=O)cn4C3CC3)CC2)C[C@@H](C)CN(C)[C@H](C)[C@@H](O)[C@]1(C)O
MEASURE: Ratio
MEASURED: 2
--
SMILES REPR: CC[C@H]1OC(=O)[C@H](C)[C@@H](OC(=O)Cc2ccccn2)[C@H](C)[C@@H](O[C@@H]2O[C@H](C)C[C@H](N(C)C)[C@H]2O)[C@](C)(OC(=O)CCN2CCN(c3nc4c(cc3F)c(=O)c(C(N)=O)cn4CC)CC2)C[C@@H](C)CN(C)[C@H](C)[C@@H](O)[C@]1(C)O
MEASURE: Ratio
MEASURED: 1
--
SMILES REPR: CC[C@H]1OC(=O)[C@H](C)[C@@H](OC(=O)Cc2cccnc2)[C@H](C)[C@@H](O[C@@H]2O[C@H](C)C[C@H](N(C)C)[C@H]2O)[C@](C)(OC(=O)CCNCCC#Cc2ccc3c(c2)c(=O)c(C(=O)O)cn3C2CC2)C[C@@H](C)CN(C)[C@H](C)[C@H]2OC(=O)O[C@@]21C
MEASURE: Ratio
MEASURED: 2
--
SMILES REPR: CC[C@H]1OC(=O)[C@H](C)[C@@H](OC(=O)Cc2ccccn2)[C@H](C)[C@@H](O[C@@H]2O[C@H](C)C[C@H](N(C)C)[C@H]2O)[C@](C)(OC(=O)CCNCC/C=C/c2cnc3ccccc3c2)C[C@@H](C)CN(C)[C@H](C)[C@@H](O)[C@]1(C)O
MEASURE: Ratio
MEASURED: 2

Please turn your attention to the following entry.
q: Report Ratio, nothing else, for this molecule: CC[C@H]1OC(=O)[C@H](C)[C@@H](OC(=O)Cc2ccccn2)[C@H](C)[C@@H](O[C@@H]2O[C@H](C)C[C@H](N(C)C)[C@H]2O)[C@](C)(OC(=O)CCNCCCc2cnc3ccccc3c2)C[C@@H](C)CN(C)[C@H](C)[C@@H](O)[C@]1(C)O
a: 1

* * *

System: Streptococcus pneumoniae
PROTOCOL: Antibacterial activity against MLSB-resistant Streptococcus pneumoniae 07P390 harboring ermB gene assessed as reduction in microbial growth
Assay type: functional
MEASURE: MIC

For orientation, consider the following solved cases.
COMPOUND: CC[C@H]1OC(=O)[C@H](C)[C@@H](OC(=O)Cc2ccccn2)[C@H](C)[C@@H](O[C@@H]2O[C@H](C)C[C@H](N(C)C)[C@H]2O)[C@](C)(OC(=O)CCNCCC#Cc2ccc3c(c2)c(=O)c(C(N)=O)cn3C)C[C@@H](C)CN(C)[C@H](C)[C@@H](O)[C@]1(C)O
MEASURED: 256 µg/mL
//
COMPOUND: CC[C@H]1OC(=O)[C@H](C)C(=O)[C@H](C)[C@@H](O[C@@H]2O[C@H](C)C[C@H](N(C)C)[C@H]2O)[C@](C)(OC)C[C@@H](C)C(=O)[C@H](C)[C@H]2N(CCCCn3cnc(-c4cccnc4)c3)C(=O)O[C@]12C
MEASURED: 0.016 µg/mL
//
COMPOUND: CC[C@H]1OC(=O)[C@H](C)[C@@H](OC(=O)Cc2ccccn2)[C@H](C)[C@@H](O[C@@H]2O[C@H](C)C[C@H](N(C)C)[C@H]2O)[C@](C)(OC(=O)CCNCCC#Cc2ccc3c(c2)c(=O)c(C(=O)NC)cn3C2CC2)C[C@@H](C)CN(C)[C@H](C)[C@@H](O)[C@]1(C)O
MEASURED: 256 µg/mL
//
COMPOUND: CC[C@H]1OC(=O)[C@H](C)[C@@H](OC(=O)Cc2ccccn2)[C@H](C)[C@@H](O[C@@H]2O[C@H](C)C[C@H](N(C)C)[C@H]2O)[C@](C)(OC(=O)CCN2CCN(c3nc4c(cc3F)c(=O)c(C(N)=O)cn4CC)CC2)C[C@@H](C)CN(C)[C@H](C)[C@@H](O)[C@]1(C)O
MEASURED: 64 µg/mL
//
COMPOUND: CC[C@H]1OC(=O)[C@H](C)[C@@H](OC(=O)Cc2ccccn2)[C@H](C)[C@@H](O[C@@H]2O[C@H](C)C[C@H](N(C)C)[C@H]2O)[C@](C)(OC(=O)CCN2CCN(c3cc4c(cc3F)c(=O)c(C(N)=O)cn4CC)CC2)C[C@@H](C)CN(C)[C@H](C)[C@@H](O)[C@]1(C)O
MEASURED: 64 µg/mL

q: Report MIC, nothing else, for this compound: CC[C@H]1OC(=O)[C@H](C)[C@@H](O[C@H]2C[C@@](C)(OC)[C@@H](O)[C@H](C)O2)[C@H](C)[C@@H](O[C@@H]2O[C@H](C)C[C@H](N(C)C)[C@H]2O)[C@](C)(OC)C[C@@H](C)C(=O)[C@H](C)[C@@H](O)[C@]1(C)O
a: > 256 µg/mL

q: Report MIC, nothing else, for this compound: CC[C@H]1OC(=O)[C@H](C)[C@@H](OC(=O)Cc2ccccn2)[C@H](C)[C@@H](O[C@@H]2O[C@H](C)C[C@H](N(C)C)[C@H]2O)[C@](C)(OC(=O)CCN2CCN(c3c(F)cc4c(=O)c(C(N)=O)cn(C5CC5)c4c3OC)CC2C)C[C@@H](C)CN(C)[C@H](C)[C@@H](O)[C@]1(C)O (stereo not given in full)
a: 8 µg/mL

q: Report MIC, nothing else, for this compound: CC[C@H]1OC(=O)[C@H](C)[C@@H](OC(=O)Cc2ccccn2)[C@H](C)[C@@H](O[C@@H]2O[C@H](C)C[C@H](N(C)C)[C@H]2O)[C@](C)(OC(=O)CCN2CCN(c3cc4c(cc3F)c(=O)c(C(=O)O)cn4C3CC3)CC2)C[C@@H](C)CN(C)[C@H](C)[C@@H](O)[C@]1(C)O
a: 4 µg/mL

q: Report MIC, nothing else, for this compound: CC[C@H]1OC(=O)[C@H](C)[C@@H](OC(=O)Cc2ccccn2)[C@H](C)[C@@H](O[C@@H]2O[C@H](C)C[C@H](N(C)C)[C@H]2O)[C@](C)(OC(=O)CCNCCC#Cc2cncc(C(N)=O)c2)C[C@@H](C)CN(C)[C@H](C)[C@@H](O)[C@]1(C)O
a: 128 µg/mL

q: Report MIC, nothing else, for this compound: CC[C@H]1OC(=O)[C@H](C)[C@@H](OC(=O)Cc2ccccn2)[C@H](C)[C@@H](O[C@@H]2O[C@H](C)C[C@H](N(C)C)[C@H]2O)[C@](C)(OC(=O)CCN2CCN(c3cc4c(cc3F)c(=O)c(C(=O)O)cn4C3CC3)CC2)C[C@@H](C)CN(C)[C@H](C)[C@H]2OC(=O)O[C@@]21C
a: > 256 µg/mL

q: Report MIC, nothing else, for this compound: CC[C@H]1OC(=O)[C@H](C)[C@@H](OC(=O)Cc2ccccn2)[C@H](C)[C@@H](O[C@@H]2O[C@H](C)C[C@H](N(C)C)[C@H]2O)[C@](C)(OC(=O)CCN2CCN(c3cc4c(cc3F)c(=O)c(C(N)=O)cn4C3CC3)CC2)C[C@@H](C)CN(C)[C@H](C)[C@H]2OC(=O)O[C@@]21C
a: 32 µg/mL

q: Report MIC, nothing else, for this compound: CC[C@H]1OC(=O)[C@H](C)[C@@H](OC(=O)Cc2ccccn2)[C@H](C)[C@@H](O[C@@H]2O[C@H](C)C[C@H](N(C)C)[C@H]2O)[C@](C)(OC(=O)CCNCCC#Cc2cnc3ccccc3c2)C[C@@H](C)CN(C)[C@H](C)[C@@H](O)[C@]1(C)O
a: 0.5 µg/mL

q: Report MIC, nothing else, for this compound: CC[C@H]1OC(=O)[C@H](C)[C@@H](OC(=O)Cc2ccccn2)[C@H](C)[C@@H](O[C@@H]2O[C@H](C)C[C@H](N(C)C)[C@H]2O)[C@](C)(OC(=O)CCN2CCN(c3cc4c(cc3F)c(=O)c(C(N)=O)cn4C3CC3)CC2)C[C@@H](C)CN(C)[C@H](C)[C@@H](O)[C@]1(C)O
a: 128 µg/mL

q: Report MIC, nothing else, for this compound: CC[C@H]1OC(=O)[C@H](C)[C@@H](OC(=O)Cc2ccccn2)[C@H](C)[C@@H](O[C@@H]2O[C@H](C)C[C@H](N(C)C)[C@H]2O)[C@](C)(OC(=O)CCNCC#Cc2cnc3ccccc3c2)C[C@@H](C)CN(C)[C@H](C)[C@@H](O)[C@]1(C)O
a: 1 µg/mL

q: Report MIC, nothing else, for this compound: O=C(O)c1cn(C2CC2)c2cc(N3CCNCC3)c(F)cc2c1=O
a: 2 µg/mL
